Test system: phosphorylation level of intracellular protein kinase (ERK) in MOLM13 cells
procedureSummary: Phosphorylated protein kinase (p-ERK) cell experiment (AlphaLISA)
Format: cell-based
conditionNotes: Homo sapiens, MOLM-13; p-ERK, MOLM13 cells, 2 hours of cell treatment, Tables 2.1 and 2.2; read-out: IC50
pIC50: −log10 of the molar value.
reportedProperty: pIC50

Past entries and their recorded results:
N[C@@H]1CCCC12CCN(c1ncc(Sc3ccncc3Cl)c3nncn13)CC2	6.00 to 7.00
Cc1nccc(Sc2cnc(N3CCC4(CC3)CO[C@@H](C)[C@H]4N)n3cnnc23)c1Cl	6.00 to 7.00
C=CC(=O)Nc1cccc(Sc2cnc(N3CCC4(CCC[C@H]4N)CC3)n3ccnc23)c1Cl	6.00 to 7.00
Nc1cc(Sc2cnc(N3CCC4(CCC[C@H]4N)CC3)n3ccnc23)c(Cl)c(Cl)n1	> 7.00
N[C@@H]1CCCC12CCN(c1ncc(Sc3ccnc4ccccc34)c3nccn13)CC2	6.00 to 7.00
N[C@@H]1CCCC12CCN(c1ncc(Sc3cccnc3Cl)c3nccn13)CC2	6.00 to 7.00

Request: Which pIC50 value is on record for N[C@@H]1CCC12CCN(c1ncc(Sc3cccc(Cl)c3Cl)c3nccn13)CC2 ?
Result: 6.00 to 7.00

Request: Now consider CC1C[C@@H](N)C2(CCN(c3ncc(Sc4ccnc(N)c4Cl)c4nccn34)CC2)C1 (some centres unmarked) .
Result: > 7.00

Request: Now consider N[C@@H]1CCCC12CCN(c1ncc(Sc3ccnc(Cl)c3Cl)c3nccn13)CC2 .
Result: 6.00 to 7.00

Request: Now consider CC1(N)CCN(c2ncc(Sc3ccnc(N)c3Cl)c3nncn23)CC1 .
Result: 5.00 to 6.00

Request: Now consider C[C@@H]1OCC2(CCN(c3ncc(Sc4cc(N)nc(Cl)c4Cl)c4nccn34)CC2)[C@@H]1N .
Result: > 7.00

Request: Now consider Nc1nccc(Sc2cnc(N3CCC4(CC3)COC[C@H]4N)n3ccnc23)c1Cl .
Result: 6.00 to 7.00

Request: Now consider N[C@@H]1CCCCC12CCN(c1ncc(Sc3cccc(Cl)c3Cl)c3nncn13)CC2 .
Result: 5.00 to 6.00

Request: Now consider Nc1cccc(Sc2cnc(N3CCC4(CCC[C@H]4N)CC3)n3cnnc23)c1Cl .
Result: 6.00 to 7.00

###

System: MOLM-13 cells
procedureSummary: MOLM-13 cell proliferation experiment
Type: cell-based
conditionNotes: Homo sapiens, MOLM-13, 72 h, MOLM-13 cell proliferation, 3 days, Tables 3.1 and 3.2; read-out: IC50
Listed here are compounds together with their documented IC50.

CC1C[C@@H](N)C2(CCN(c3ncc(Sc4cc(N)nc(Cl)c4Cl)c4nncn34)CC2)C1 (stereo partly shown)	< 0.1 µM

Request: Which IC50 value is on record for Nc1cc(Sc2cnc(N3CCC4(CCC[C@H]4N)CC3)n3ncnc23)c(Cl)c(Cl)n1 ?
Result: 0.1 to 1 µM

Request: Now consider Cc1nccc(Sc2cnc(N3CCC4(CCC[C@H]4N)CC3)n3ccnc23)c1Cl .
Result: < 0.1 µM

Request: Now consider Nc1nccc(Sc2cnc(N3CCC4(CCC[C@H]4N)CC3)n3ccnc23)c1Cl .
Result: 0.1 to 1 µM

Request: Now consider N[C@@H]1COCC12CCN(c1ncc(Sc3cccc(Cl)c3Cl)c3nncn13)CC2 .
Result: 0.1 to 1 µM
